- Species on record: Rattus norvegicus
- ASSAY PROCEDURE: Open TG-GATES - Regimen: Daily Repeat
- Type: toxicity, organism-based, Sprague-Dawley
- Parameters: regimen Daily Repeat, gender Male, age 6 weeks
- CONDITION INFO: in vivo, po, 0 mg/kg, 72 h, tissue Blood, route gavage, dose level Control, time 3 day
REPORTED PROPERTY: Ht (%)
Respond with the bare value in %.

What value of Ht has been reported for the following molecule? CN(CCOc1ccc(CC2SC(=O)NC2=O)cc1)c1ccccn1.O=C(O)/C=C\C(=O)O (centres undefined) [ROSIGLITAZONE MALEATE] 39.2

====

Ht by entry:
- Organism: Rattus norvegicus
- ASSAY PROCEDURE: Open TG-GATES - Regimen: Daily Repeat
- Type: toxicity, organism-based, Sprague-Dawley
- Parameters: regimen Daily Repeat, gender Male, age 6 weeks
- CONDITION INFO: in vivo, po, 300 mg/kg, […], tissue Blood, route gavage, dose level Middle, time 14 day
// return numeric value only (unit: %, not printed)

Please review the following examples before continuing.
- COMPOUND: "CCCCNC(=O)NS(=O)(=O)c1ccc(C)cc1 [TOLBUTAMIDE]"
  RECORDED RESULT: 44.4
- COMPOUND: "CC(S)C(=O)NCC(=O)O (centres undefined) [TIOPRONIN]"
  RECORDED RESULT: 41.2

Look up Ht: O=C(O)c1ccccc1Nc1ccccc1 [FENAMIC ACID] 42.2

Same again, this time with CC(=O)[C@@]1(O)CC[C@H]2[C@@H]3C=C(Cl)C4=CC(=O)CC[C@]4(C)[C@H]3CC[C@@]21C [CHLORMADINONE] 44.7

====

Known Ht of a selection of compounds
- Species: Rattus norvegicus
- ASSAY PROCEDURE: Open TG-GATES - Regimen: Daily Repeat
- Type: toxicity, organism-based, Sprague-Dawley
- Parameters: regimen Daily Repeat, gender Male, age 6 weeks
- CONDITION INFO: in vivo, po, 100 mg/kg, 72 h, tissue Blood, route gavage, dose level Low, time 3 day
API: value field is a number in %; no unit string.

Solved entries:
- COMPOUND: "CCCCNC(=O)NS(=O)(=O)c1ccc(C)cc1 [TOLBUTAMIDE]"
  READING UNIT: "%"
  RECORDED RESULT: 42
- COMPOUND: "O=C(O)c1ccccc1Nc1ccccc1 [FENAMIC ACID]"
  READING UNIT: "%"
  RECORDED RESULT: 40.5
- COMPOUND: "CC(=O)[C@@]1(O)CC[C@H]2[C@@H]3C=C(Cl)C4=CC(=O)CC[C@]4(C)[C@H]3CC[C@@]21C [CHLORMADINONE]"
  READING UNIT: "%"
  RECORDED RESULT: 42.6

With those in mind, consider the next compound.
Recorded Ht for CC(S)C(=O)NCC(=O)O (centres undefined) [TIOPRONIN] , please? 39.1

====

- Species on record: Rattus norvegicus
- ASSAY PROCEDURE: Open TG-GATES - Regimen: Single
- Type: toxicity, organism-based, Sprague-Dawley
- Design: regimen Single, gender Male, age 6 weeks
- CONDITION INFO: in vivo, po, 0 mg/kg, 24 h, tissue Plasma, route gavage, dose level Control
REPORTED PROPERTY: DBIL (mg/dL)
Respond with the bare value in mg/dL.

Take a look at these entries with their results.
- COMPOUND: "CC(S)C(=O)NCC(=O)O (stereo not given)"
  READING UNIT: "mg/dL"
  DBIL: 0
- COMPOUND: "C=C[C@H]1C[N@@]2CC[C@H]1C[C@@H]2[C@@H](O)c1ccnc2ccc(OC)cc12"
  READING UNIT: "mg/dL"
  DBIL: 0
- COMPOUND: "COc1ccc([C@@H]2Sc3ccccc3N(CCN(C)C)C(=O)[C@@H]2OC(C)=O)cc1"
  READING UNIT: "mg/dL"
  DBIL: 0.014
- COMPOUND: "Nc1ccc(Cc2ccc(N)cc2)cc1"
  READING UNIT: "mg/dL"
  DBIL: 0.02

Look up DBIL for this compound: CN(C)CCCN1c2ccccc2Sc2ccc(Cl)cc21 0.058

Note, next up: O=C(O)c1ccccc1Nc1ccccc1 0.008

How about this compound: CC(=O)[C@@]1(O)CC[C@H]2[C@@H]3C=C(Cl)C4=CC(=O)CC[C@]4(C)[C@H]3CC[C@@]21C 0

Would you mind doing CN(C/C=C/C#CC(C)(C)C)Cc1cccc2ccccc12 as well? 0.1

Lookup CCN(CC)C(=S)SSC(=S)N(CC)CC 0

====

- Species: Rattus norvegicus
- ASSAY PROCEDURE: Open TG-GATES - Regimen: Daily Repeat
- Type: toxicity, organism-based, Sprague-Dawley
- Set-up: regimen Daily Repeat, gender Male, age 6 weeks
- CONDITION INFO: in vivo, po, 0 mg/kg, […], tissue Blood, route gavage, dose level Control, time 14 day
Decision: Lym beneath 80% gives 1 (yes); Lym meeting or exceeding 80% gives 0 (no).

Completed entries (count: 3):
- MOLECULE: "CCCCC1C(=O)N(c2ccccc2)N(c2ccccc2)C1=O"
  GROUP LABEL: "0 (no)"
- MOLECULE: "CN(CCOc1ccc(CC2SC(=O)NC2=O)cc1)c1ccccn1.O=C(O)/C=C\\C(=O)O (stereo not drawn) [ROSIGLITAZONE MALEATE]"
  GROUP LABEL: "1 (yes)"
- MOLECULE: "O=C(O)c1ccccc1Nc1ccccc1"
  GROUP LABEL: "0 (no)"

Is 80% strictly greater than the molecule's reported Lym? molecule: CC(S)C(=O)NCC(=O)O (stereo not drawn) 0 (no)

Also CCN(CC)C(=S)SSC(=S)N(CC)CC ? 0 (no)

Another molecule to check: CN(C/C=C/C#CC(C)(C)C)Cc1cccc2ccccc12 0 (no)

# repeat for Nc1ccc(Cc2ccc(N)cc2)cc1 1 (yes)

====

- Species: Rattus norvegicus
- ASSAY PROCEDURE: Open TG-GATES - Regimen: Daily Repeat
- Type: toxicity, organism-based, Sprague-Dawley
- Set-up: regimen Daily Repeat, gender Male, age 6 weeks
- CONDITION INFO: in vivo, po, 300 mg/kg, […], tissue Blood, route gavage, dose level Middle, time 14 day
REPORTED PROPERTY: Fbg (mg/dL)
Record the value in mg/dL, omitting the unit from your answer.

Some compounds with recorded Fbg:
- COMPOUND: "CC(=O)[C@@]1(O)CC[C@H]2[C@@H]3C=C(Cl)C4=CC(=O)CC[C@]4(C)[C@H]3CC[C@@]21C"
  Fbg (mg/dL): 326.6
- COMPOUND: "O=C(O)c1ccccc1Nc1ccccc1"
  Fbg (mg/dL): 296
- COMPOUND: "CC(S)C(=O)NCC(=O)O (centres undefined)"
  Fbg (mg/dL): 287.6

Could you share which Fbg value was measured for CCCCNC(=O)NS(=O)(=O)c1ccc(C)cc1 [TOLBUTAMIDE] ? 290.4

====

Form field: DBIL (one value per entry).
- Species on record: Rattus norvegicus
- ASSAY PROCEDURE: Open TG-GATES - Regimen: Daily Repeat
- Format: toxicity, organism-based, Sprague-Dawley
- Design: regimen Daily Repeat, gender Male, age 6 weeks
- CONDITION INFO: in vivo, po, 0 mg/kg, 72 h, tissue Plasma, route gavage, dose level Control, time 3 day
Please reply with the bare figure in mg/dL and do not write the unit itself.

Use these answered entries as a reference point.
- COMPOUND: "CC(=O)[C@@]1(O)CC[C@H]2[C@@H]3C=C(Cl)C4=CC(=O)CC[C@]4(C)[C@H]3CC[C@@]21C [CHLORMADINONE]"
  READING UNIT: "mg/dL"
  DBIL: 0
- COMPOUND: "O=c1ccc2ccccc2o1 [COUMARIN]"
  READING UNIT: "mg/dL"
  DBIL: 0.036
- COMPOUND: "CCO [ALCOHOL]"
  READING UNIT: "mg/dL"
  DBIL: 0.04
- COMPOUND: "CCCCNC(=O)NS(=O)(=O)c1ccc(C)cc1 [TOLBUTAMIDE]"
  READING UNIT: "mg/dL"
  DBIL: 0.014

Turning now to a further record.
Quick check: DBIL of CN(C/C=C/C#CC(C)(C)C)Cc1cccc2ccccc12 [TERBINAFINE] ? 0.098

====

- Species on record: Rattus norvegicus
- ASSAY PROCEDURE: Open TG-GATES - Regimen: Daily Repeat
- Assay type: toxicity, organism-based, Sprague-Dawley
- Parameters: regimen Daily Repeat, gender Male, age 6 weeks
- CONDITION INFO: in vivo, po, 0 mg/kg, 72 h, tissue Blood, route gavage, dose level Control, time 3 day
REPORTED PROPERTY: Fbg (mg/dL)
Entry rule: numbers only, all in mg/dL.

Record excerpt, results attached:
- MOLECULE: "O=C(O)c1ccccc1Nc1ccccc1"
  RECORDED RESULT: 270.2
- MOLECULE: "COc1ccc([C@@H]2Sc3ccccc3N(CCN(C)C)C(=O)[C@@H]2OC(C)=O)cc1"
  RECORDED RESULT: 262.2
- MOLECULE: "CN(C/C=C/C#CC(C)(C)C)Cc1cccc2ccccc12"
  RECORDED RESULT: 227.8
- MOLECULE: "CCN(CC)C(=S)SSC(=S)N(CC)CC"
  RECORDED RESULT: 295

State the recorded Fbg for this entry: NS(=O)(=O)c1cc(C(=O)O)c(NCc2ccco2)cc1Cl [FUROSEMIDE] 306

Now the same for Nc1ccc(Cc2ccc(N)cc2)cc1 284.6
